- Target or system: T1, human ALPP on CHO cells (human, UniProt P05187 23-506)
- T1 construct: whole, on cells; also called CHO-ALPP
- T1 sequence (P05187 23-506): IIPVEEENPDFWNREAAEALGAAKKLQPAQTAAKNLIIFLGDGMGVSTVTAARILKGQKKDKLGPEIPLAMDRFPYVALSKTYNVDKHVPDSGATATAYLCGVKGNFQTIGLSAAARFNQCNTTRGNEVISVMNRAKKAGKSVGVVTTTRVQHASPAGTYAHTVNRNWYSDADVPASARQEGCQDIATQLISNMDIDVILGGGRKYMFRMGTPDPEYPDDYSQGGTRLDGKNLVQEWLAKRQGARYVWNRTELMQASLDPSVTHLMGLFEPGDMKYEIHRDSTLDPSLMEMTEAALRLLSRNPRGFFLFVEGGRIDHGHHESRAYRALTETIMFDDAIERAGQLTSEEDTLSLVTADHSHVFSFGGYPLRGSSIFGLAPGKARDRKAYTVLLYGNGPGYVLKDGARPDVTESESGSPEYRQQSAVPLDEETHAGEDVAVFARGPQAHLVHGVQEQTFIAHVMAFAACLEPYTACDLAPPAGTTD
- Method notes: flow cytometry, CHO cells, KDapp
- Protocol: Cell surface binding of test agents to hALPP isoforms was characterized in four CHO-ALPP isoform stably transfected cell lines (CHO-ALPP, CHO-ALPPL2, CHO-ALPI and CHO-ALPL) and the resulting KDapp values determined. […] Binding of VHH (His6 tagged) agents was determined by adding 100 μl of anti-x6His tag Ab (Abcam) per cell pellet sample as appropriate and incubating on ice for 30 mins. […]
Assay endpoint: Kd

The following binders have reported results that may help.
E06 His (VHH, not shown: small tags and cut ends) VHH: QVHLVESGGGLVQAGGSLRLSCAASRRSFSEYAMGWFRQAPGKEREFVAAIGWSGVIEYADSVKGRFTISRDNAKDTVYLQMNSLKPEDTAVYYCAAGLGIRVVSQTPAYWGQGTQVTVSS
4.6 nM
D04 His (VHH, not shown: small tags and cut ends) VHH: QVQLVESGGGLVQPGGSLRLSCAASESTFSINVMGWYRQAPGKQRELVATITSGDITNYADSVKGRFTISRDNAENTVYLRTNSLKPEDTAVYYCNARGEYHSGNEYDYWGQGTQVTVSS
4.2 nM
A06 His (VHH, not shown: small tags and cut ends, also called #250) VHH: QVHLVESGGGLVQAGGSLRLSCAASGRTFLSMGWFRQAPGKEREFVAAISWTGGSTGYADSVKGRFTISRESDKETMYLQMNSLKPEDTAVYYCAARGDVYYGGDDATRYKYWGQGTQVTVSS
42.4 nM

Enquiry: Look at this binder and give its reported Kd. B01 His (VHH, not shown: small tags and cut ends) VHH: QVQLVESGGGLVQAGGSLRLSCEVTRSPMPIDTMAWYRQAPGRQRELVAIISRSGSTNYADSVKGRFTISRNDTKSTMYKSTMYLKMNTLELEDTGVYYCNAVGLWNGAEYWGQGTQVTVSS
Return: 5.3 nM
